molecular target: glutathione-S-transferase (GST) tagged LXRalpha LBD (ligand binding domain) (Homo sapiens); assay: LanthaScreen TR-FRET Liver X Receptor Coactivator Assay, LXR alpha-LBD; conditions: potency (Inflection Point) of co-activator recruitment, TR-FRET; read-out: LXR alpha IP
measured.endpoint: pEC50
pEC50 is a log-scale quantity: -log10 of the concentration expressed in molar.

Some solved entries appear below for comparison.
{"molecule": "CN(C)C(=O)c1ccc(-c2cnc(N3CCN(C(=O)C(O)(c4ccccc4Cl)C(F)(F)F)CC3)c(C#N)c2)cc1Cl (stereo not shown)", "pEC50": 6.53}
{"molecule": "CC(C)(C)OC(=O)N1CCN(c2ncc(-c3ccc(C(=O)N4CC[C@@H](O)C4)c(Cl)c3)cc2C#N)CC1", "pEC50": 5.07}
{"molecule": "CN(C)C(=O)c1ccc(-c2cnc(N3CCN(C(=O)OC(C)(C)C)CC3)c(CO)c2)cc1Cl", "pEC50": 4.52}

Request: Consider the molecule "CC(C)(C)OC(=O)N1CCN(c2ncc(-c3ccc(C(=O)N4CC[C@H](O)C4)c(Cl)c3)cc2C#N)CC1" . State its measured pEC50.
Response: 5.16

Request: Consider the molecule "CN(C)C(=O)c1ccc(-c2ccc(N3CCN(C(=O)c4c(F)cccc4Cl)CC3)c(Cl)c2)cc1Cl" . State its measured pEC50.
Response: 6.21

Request: Consider the molecule CN(C)C(=O)c1ccc(-c2cnc(N3CCN(C(=O)OC(C)(C)C)CC3Cc3ccccc3)c(C#N)c2)cc1Cl (stereo not shown) . State its measured pEC50.
Response: 6.27

Request: Consider the molecule "CN(C)C(=O)c1ccc(-c2cnc(N3CCN(S(=O)(=O)c4c(Cl)cccc4Cl)CC3)c(C#N)c2)cc1Cl" . State its measured pEC50.
Response: 6.16

* * *

Biological target: glutathione-S-transferase (GST) tagged LXRalpha LBD (ligand binding domain) (Homo sapiens)
Sequence (Q13133 209-447 limits assumed): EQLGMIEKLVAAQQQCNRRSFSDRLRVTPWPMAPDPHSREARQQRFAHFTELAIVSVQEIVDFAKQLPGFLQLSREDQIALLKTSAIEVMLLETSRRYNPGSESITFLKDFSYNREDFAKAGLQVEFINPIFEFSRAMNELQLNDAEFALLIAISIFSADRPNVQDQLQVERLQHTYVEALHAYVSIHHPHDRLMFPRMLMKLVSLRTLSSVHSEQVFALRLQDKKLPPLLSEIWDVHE
Assay: LanthaScreen TR-FRET Liver X Receptor Coactivator Assay, LXR alpha-LBD
Conditions: potency (Inflection Point) of co-activator recruitment, TR-FRET; read-out: LXR alpha IP
measured.endpoint: EC50 (µM)
Quick note: give the figure in µM, leave out the unit.

{"compound": "Cc1cccc(COC(=O)N2CCN(c3ncc(-c4ccc(C(=O)N(C)C)c(Cl)c4)cc3C#N)CC2)c1 [Example 3-5]", "EC50, µM": 1.34}
{"compound": "CN(C)C(=O)c1ccc(-c2cnc(N3CCN(C(=O)Cc4c[nH]c5ccccc45)CC3)c(C#N)c2)cc1Cl [Example 2-22]", "EC50, µM": 30}
{"compound": "Cc1ccccc1COC(=O)N1CCN(c2ncc(-c3ccc(C(=O)N(C)C)c(Cl)c3)cc2C#N)CC1 [Example 3-4]", "EC50, µM": 2.82}
{"compound": "CN(C)C(=O)c1ccc(-c2ccc(N3CC4CCC(C3)N4C(=O)OC(C)(C)C)c(Cl)c2)cc1Cl [Example 8-10]", "EC50, µM": 0.66}
{"compound": "CN(CC(O)c1ccccc1)C(=O)c1ccc(-c2cnc(N3CCN(C(=O)OC(C)(C)C)CC3)c(C#N)c2)cc1Cl (stereo not shown) [Example 5-29]", "EC50, µM": 6.58}
{"compound": "CON(C)C(=O)c1ccc(-c2cnc(N3CCN(C(=O)OC(C)(C)C)CC3)c(C#N)c2)cc1Cl [Example 5-7]", "EC50, µM": 2.66}

Please turn your attention to the following entry.
Request: Consider the compound CN(C)C(=O)c1ccc(-c2cnc(N3CCN(C(=O)OC(C)(C)C)CC3)c(C#N)c2)cc1C(F)(F)F [Example 8-9] . State its measured EC50.
Response: 10.8

* * *

target: glutathione-S-transferase (GST) tagged LXRbeta LBD (ligand binding domain) (Homo sapiens, UniProt P55055); construct: purchased Invitrogen pv4658.pps; experiment: LanthaScreen TR-FRET Liver X Receptor Coactivator Assay, LXR beta-LBD; format: biochemical; conditions: efficacy in relation to reference dual agonist T1317; read-out: LXR beta activity at max dose (%) (Emax)
Sequence (P55055 222-460 limits assumed): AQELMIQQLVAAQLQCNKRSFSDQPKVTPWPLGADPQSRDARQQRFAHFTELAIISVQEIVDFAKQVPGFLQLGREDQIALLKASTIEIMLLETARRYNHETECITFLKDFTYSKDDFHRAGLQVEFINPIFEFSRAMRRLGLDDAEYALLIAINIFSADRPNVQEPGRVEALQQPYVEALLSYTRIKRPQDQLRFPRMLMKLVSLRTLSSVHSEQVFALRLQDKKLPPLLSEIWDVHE
Collected Emax values appear next to each entry.
Quick note: give the figure in %, leave out the unit.

Some solved entries appear below for comparison.
{"molecule": "CN(C)C(=O)c1ccc(-c2ccc(N3CCN(C(=O)c4ccccc4Cl)CC3)cc2)cc1Cl [Example 4-15]", "Emax, %": 85}
{"molecule": "CC(C)(C)OC(=O)N1CCN(c2ncc(-c3ccc(C(=O)NCc4ncc[nH]4)c(Cl)c3)cc2C#N)CC1 [Example 5-16]", "Emax, %": 91}
{"molecule": "CN(C)C(=O)c1ccc(-c2ccc(N3CC4CCC(C3)N4S(=O)(=O)c3c(Cl)cccc3Cl)c(Cl)c2)cc1Cl [Example 8-16]", "Emax, %": 82}
{"molecule": "CN(C)C(=O)c1ccc(-c2cnc(N3CCN(C(=O)OC(C)(C)C)CC3)c(C#N)c2)cc1C(F)(F)F [Example 8-9]", "Emax, %": 73}
{"molecule": "CN(C)C(=O)c1ccc(-c2ccc(N3CCN(C(=O)c4ccccc4C(F)(F)F)CC3)cc2)cc1Cl [Example 4-17]", "Emax, %": 80}
{"molecule": "CN(CCn1cncn1)C(=O)c1ccc(-c2cnc(N3CCN(C(=O)OC(C)(C)C)CC3)c(C#N)c2)cc1Cl [Example 5-24]", "Emax, %": 71}
{"molecule": "C=Cc1cc(-c2ccc(C(=O)N(C)C)c(Cl)c2)cnc1N1CCN(C(=O)OC(C)(C)C)CC1 [Example 9-2]", "Emax, %": 49}
{"molecule": "CN(C)C(=O)c1ccc(-c2cnc(N3CC4CC3CN4C(=O)OC(C)(C)C)c(C#N)c2)cc1Cl (centres unmarked) [Example 8-5]", "Emax, %": 53}
{"molecule": "CC1CN(c2ncc(-c3ccc(C(=O)N(C)C)c(Cl)c3)cc2C#N)CCN1C(=O)OC(C)(C)C (centres unmarked) [Example 8-6]", "Emax, %": 78}
{"molecule": "CN(C)C(=O)c1ccc(-c2cnc(N3CCN(C(=O)C4(c5ccccc5F)CCCC4)CC3)c(C#N)c2)cc1Cl [Example 2-29]", "Emax, %": 93}

Request: Consider the molecule CC(C)(C)OC(=O)N1CCN(c2ncc(-c3ccc(C(=O)N4CC[C@H](O)C4)c(Cl)c3)cc2C#N)CC1 [Example 5-13] . State its measured Emax.
Response: 62

Request: Consider the molecule CN(C)C(=O)c1ccc(-c2ccc(N3CCN(S(=O)(=O)c4c(Cl)cccc4C(F)(F)F)CC3)cc2)cc1Cl [Example 4-14] . State its measured Emax.
Response: 88

Request: Consider the molecule COc1ccc(COC(=O)N2CCN(c3ncc(-c4ccc(C(=O)N(C)C)c(Cl)c4)cc3C#N)CC2)cc1 [Example 3-8] . State its measured Emax.
Response: 65

Request: Consider the molecule CN(C)C(=O)c1ccc(-c2cnc(N3CCN(S(=O)(=O)C4CCCCC4)CC3)c(C#N)c2)cc1Cl [Example 1-7] . State its measured Emax.
Response: 79

Request: Consider the molecule CC(C)(C)OC(=O)N1CCN(c2ncc(-c3ccc(C(=O)N(CCO)Cc4ccccc4)c(Cl)c3)cc2C#N)CC1 [Example 5-30] . State its measured Emax.
Response: 73

Request: Consider the molecule Cc1cccc(COC(=O)N2CCN(c3ncc(-c4ccc(C(=O)N(C)C)c(Cl)c4)cc3C#N)CC2)c1 [Example 3-5] . State its measured Emax.
Response: 97

Request: Consider the molecule CN(C)C(=O)c1ccc(-c2cnc(N3CCN(C(=O)C4CCCCO4)CC3)c(C#N)c2)cc1Cl (centres unmarked) [Example 2-6] . State its measured Emax.
Response: 49

Request: Consider the molecule CN(CC(O)c1ccccc1)C(=O)c1ccc(-c2cnc(N3CCN(C(=O)OC(C)(C)C)CC3)c(C#N)c2)cc1Cl (centres unmarked) [Example 5-29] . State its measured Emax.
Response: 75

Request: Consider the molecule CN(C)C(=O)c1ccc(-c2ccc(N3CCN(S(=O)(=O)c4c(Cl)cccc4C(F)(F)F)CC3)c(Cl)c2)cc1Cl [Example 4-9] . State its measured Emax.
Response: 96

Request: Consider the molecule CN(C)C(=O)c1ccc(-c2ccc(N3CCN(C(=O)c4ccccc4Cl)CC3)c(Cl)c2)cc1Cl [Example 4-4] . State its measured Emax.
Response: 75

* * *

target: glutathione-S-transferase (GST) tagged LXRalpha LBD (ligand binding domain) (Homo sapiens, UniProt Q13133); construct: purchased Invitrogen pv4655; assay: LanthaScreen TR-FRET Liver X Receptor Coactivator Assay, LXR alpha-LBD; assay type: biochemical; details: efficacy in relation to reference dual agonist T1317; read-out: LXR alpha activity at max dose (%) (Emax)
measured.endpoint: Emax
Answer with the value and then the unit.

Some solved entries appear below for comparison.
{"compound": "CC(C)(C)OC(=O)N1CCN(c2ncc(-c3ccc(C(=O)N(CCO)Cc4ccccc4)c(Cl)c3)cc2C#N)CC1 [Example 5-30]", "Emax": "57%"}
{"compound": "CN(C)C(=O)c1ccc(-c2cnc(N3CCN(C(=O)C(O)(c4ccccc4)C(F)(F)F)CC3)c(C#N)c2)cc1Cl (stereo not drawn) [Example 2-32]", "Emax": "37%"}

Please turn your attention to the following entry.
Request: Consider the compound CN(C)C(=O)c1ccc(-c2cnc(N3CCN(C(=O)OCc4ccccc4)CC3)c(C#N)c2)cc1Cl [Example 3-14] . State its measured Emax.
Response: 26%
